- systemName: hRUP25 (Homo sapiens, UniProt Q8TDS4)
- Sequence (Q8TDS4 whole entry): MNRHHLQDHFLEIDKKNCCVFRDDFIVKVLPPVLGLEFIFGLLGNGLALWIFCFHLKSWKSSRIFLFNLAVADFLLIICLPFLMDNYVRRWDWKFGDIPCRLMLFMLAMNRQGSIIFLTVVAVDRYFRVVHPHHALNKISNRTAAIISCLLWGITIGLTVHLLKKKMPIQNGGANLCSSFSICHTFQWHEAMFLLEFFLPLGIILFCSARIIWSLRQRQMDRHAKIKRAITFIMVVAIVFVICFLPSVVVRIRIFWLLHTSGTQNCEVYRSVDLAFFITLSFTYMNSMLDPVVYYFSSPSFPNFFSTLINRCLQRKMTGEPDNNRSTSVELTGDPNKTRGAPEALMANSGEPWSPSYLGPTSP
- protocolText: cell-based
quantityMeasured: EC50
Param answer (str): number followed by unit.

Incoming: Suppose we examine the compound CN1CCCC1c1cccnc1 (stereo not shown) [nicotine] ; what EC50 value has been reported?
Outgoing: 9.8 µM

====

- systemName: hRUP25 (Homo sapiens)
- protocolText: Flash Plate adenylyl cyclase (cAMP) assay for agonists to hRUP25 in stably transfected CHO cells (clone 46)
- Type: cell-based
- experimentalConditions: read-out: RUP25 (EC50)
- Text: A modified Flash Plate™ Adenylyl Cyclase kit (New England Nuclear; Cat. No. SMP004A) is used for direct identification of candidate compounds as agonists to hRUP25 in accordance with the following protocol: Stably transfected CHO cells (clone 46) were harvested from flasks via non-enzymatic means. The cells were washed in PBS and resuspended in the manufacturer's Assay Buffer. […] Plates were counted in a Wallac MicroBeta™ plate reader using “Prot. #31” (as per manufacturer instructions).
Reported pEC50 values follow for various molecules
Convention used: pEC50 is expressed as -log10 of the molar concentration.

> print(dat)
              smilescode  valueobserved
1  COCc1cc(C(=O)O)[nH]n1           5.10

Kindly review the next molecule as well.
Incoming: Suppose we examine the molecule CSCc1cc(C(=O)O)[nH]n1 ; what pEC50 value has been reported?
Outgoing: 5.37
